# Test system: HCT-116 colon
# TEST: NCI tumour cell line growth inhibition, 48 h

- MOLECULE: "C=CCNC(=O)CN(CC(=O)OC)C1CCCCC1N(CC(=O)OC)CC(=O)OC (stereo not given)"
  TGI: "> 100 µM"
- MOLECULE: "CN(C)c1nc(N)c(C#N)c(C#N)c1C#N"
  TGI: "> 10 µM"
- MOLECULE: "C/C(N=NS(=O)(=O)c1ccc(C)cc1)=C1\\C=CC=CN1O"
  TGI: "> 100 µM"
- MOLECULE: "CC(=O)N(CC(=O)C(=O)NNc1ccoc1)c1ccc(Cl)cc1"
  TGI: "> 100 µM"
- MOLECULE: "O=S(=O)(O)c1ccc2cc3nn(-c4ccc(/C=C/c5ccc(-n6nc7cc8ccc(S(=O)(=O)O)cc8cc7n6)cc5S(=O)(=O)O)c(S(=O)(=O)O)c4)nc3cc2c1"
  TGI: "> 100 µM"
- MOLECULE: "O=C(O)C12CC3CC(C1)C2C=C3P(=O)(O)O (stereo not given)"
  TGI: "> 100 µM"
- MOLECULE: "NCc1ccc(-c2nc(-c3ccc(Cl)c(O)c3)c(-c3ccncc3)[nH]2)cc1"
  TGI: "> 25 µM"
- MOLECULE: "NC(=O)CC(N)c1nn[nH]n1 (stereo not given)"
  TGI: "> 100 µM"
- MOLECULE: "NC(CCCCNCc1ccccc1O)C(=O)O (stereo not given)"
  TGI: "> 100 µM"
- MOLECULE: "Cc1cc(O)c2c3c(ccc2c1)C(=O)c1c(O)cccc1C3=O"
  TGI: "> 100 µM"

----------
# System: MDA-MB-231 breast
# TEST: NCI tumour cell line growth inhibition, 48 h
TGI for assorted compounds
ATTRIBUTE_MEASURED: TGI

- COMPOUND: "C=CCNC(=O)CN(CC(=O)OC)C1CCCCC1N(CC(=O)OC)CC(=O)OC (stereo unspecified)"
  ATTRIBUTE_MEASURED: "TGI"
  RECORDED_RESULT: "> 100 µM"
- COMPOUND: "Cn1c(C(=O)c2cccc3ccccc23)nc2ccccc21"
  ATTRIBUTE_MEASURED: "TGI"
  RECORDED_RESULT: "> 100 µM"
- COMPOUND: "CNC(=O)CCCNC(=O)CCCC(=O)OC"
  ATTRIBUTE_MEASURED: "TGI"
  RECORDED_RESULT: "> 100 µM"
- COMPOUND: "Cc1cn(C2CC(O)C(Cn3nncc3Cn3ncc(=O)[nH]c3=O)O2)c(=O)[nH]c1=O (stereo unspecified)"
  ATTRIBUTE_MEASURED: "TGI"
  RECORDED_RESULT: "> 100 µM"
- COMPOUND: "NC(=O)CC(N)c1nn[nH]n1 (stereo unspecified)"
  ATTRIBUTE_MEASURED: "TGI"
  RECORDED_RESULT: "> 100 µM"
- COMPOUND: "O=C(Nc1ccc2[nH]c(C(=O)N3CC(CCl)c4ccc([N+](=O)[O-])cc43)cc2c1)c1cc2ccccc2o1 (stereo unspecified)"
  ATTRIBUTE_MEASURED: "TGI"
  RECORDED_RESULT: "> 1100 µM"

----------
# Test system: RPMI-8226 leukemia
# TEST: NCI tumour cell line growth inhibition, 48 h
Entries and their GI50 values follow.
ATTRIBUTE_MEASURED: GI50

- COMPOUND: "Cc1ccc(-n2c(-c3cc4c([nH]c5ccccc54)c(-c4cccc(O)c4)n3)n[nH]c2=S)cc1"
  STUDY_TARGET: "RPMI-8226 leukemia"
  ATTRIBUTE_MEASURED: "GI50"
  RECORDED_RESULT: "0.808 µM"
- COMPOUND: "N#CC1C(N)=NNC12Nc1ccccc1S2 (stereo not given)"
  STUDY_TARGET: "RPMI-8226 leukemia"
  ATTRIBUTE_MEASURED: "GI50"
  RECORDED_RESULT: "26.3 µM"
- COMPOUND: "COc1ccc2nc3cc(Cl)ccc3c(N3CCN(c4ccnc(N5CCN(C)CC5)n4)CC3)c2c1"
  STUDY_TARGET: "RPMI-8226 leukemia"
  ATTRIBUTE_MEASURED: "GI50"
  RECORDED_RESULT: "2.04 µM"
- COMPOUND: "O=C1/C(=C/c2ccccc2O)N=C(c2ccccc2)N1c1cc(C(F)(F)F)ccc1Cl"
  STUDY_TARGET: "RPMI-8226 leukemia"
  ATTRIBUTE_MEASURED: "GI50"
  RECORDED_RESULT: "> 100 µM"
- COMPOUND: "O=S(=O)(O)c1ccc2cc3nn(-c4ccc(/C=C/c5ccc(-n6nc7cc8ccc(S(=O)(=O)O)cc8cc7n6)cc5S(=O)(=O)O)c(S(=O)(=O)O)c4)nc3cc2c1"
  STUDY_TARGET: "RPMI-8226 leukemia"
  ATTRIBUTE_MEASURED: "GI50"
  RECORDED_RESULT: "> 100 µM"

----------
# Lookup of reported TGI keyed by entry
# Tested on: SK-MEL-5 melanoma
# TEST: NCI tumour cell line growth inhibition, 48 h
ATTRIBUTE_MEASURED: TGI

- SMILES_DATA: "Cc1c(C2=NN=C(N=Nc3c(O)cccc3O)/C2=C/c2ccccc2)c(=O)n(-c2ccccc2)n1C"
  ATTRIBUTE_MEASURED: "TGI"
  RECORDED_RESULT: "> 100 µM"
- SMILES_DATA: "Nc1nc(C(=O)O)c(N=Nc2ccccc2)c(=O)[nH]1"
  ATTRIBUTE_MEASURED: "TGI"
  RECORDED_RESULT: "> 100 µM"
- SMILES_DATA: "CNC(=O)CCCNC(=O)CCCC(=O)OC"
  ATTRIBUTE_MEASURED: "TGI"
  RECORDED_RESULT: "> 100 µM"

----------
# System: MALME-3M melanoma
# TEST: NCI tumour cell line growth inhibition, 48 h

- SMILES_DATA: "NC(=O)c1sc2nc3ccccc3n2c1N"
  TGI: "> 100 µM"
- SMILES_DATA: "COc1cc(-c2cc(=O)c3ccccc3[nH]2)cc(OC)c1OC"
  TGI: "> 75 µM"
- SMILES_DATA: "O=c1[nH]c2nc[nH]c2c(=O)n1C1CCCCC1"
  TGI: "> 100 µM"

----------
# System: HCT-15 colon
# TEST: NCI tumour cell line growth inhibition, 48 h; in the data active = GI50 below about 0.43 µM; inactive = the rest
Possible outcomes: True (active), False (inactive)

- MOLECULE: "COc1ccc2c(c1)C(=O)c1c-2c(=O)n(CCCN(C)C)c2cc(OC)c(OC)cc12"
  STUDY_TARGET: "HCT-15 colon"
  ANSWER_LABEL: "False"
- MOLECULE: "N#Cc1cccc(Nc2ncc(-c3ccccc3)o2)c1"
  STUDY_TARGET: "HCT-15 colon"
  ANSWER_LABEL: "False"
- MOLECULE: "Clc1ccc([I+]c2ccc(Cl)cc2Cl)c(Cl)c1"
  STUDY_TARGET: "HCT-15 colon"
  ANSWER_LABEL: "False"
- MOLECULE: "Clc1nc(Cl)c2ncn(CCOCCn3cnc4c(Cl)nc(Cl)nc43)c2n1"
  STUDY_TARGET: "HCT-15 colon"
  ANSWER_LABEL: "True"
- MOLECULE: "C=C1C(=O)O[C@H]2[C@H]1CC/C(COC(=O)NCc1c[nH]c3ccc(F)cc13)=C\\CC[C@@]1(C)O[C@@H]21"
  STUDY_TARGET: "HCT-15 colon"
  ANSWER_LABEL: "False"
- MOLECULE: "COc1ccc(-c2[nH]c3ccccc3c2/C=C(\\C#N)S(=O)(=O)c2ccccc2)cc1"
  STUDY_TARGET: "HCT-15 colon"
  ANSWER_LABEL: "False"
- MOLECULE: "CC1SC(c2ccc(Cl)cc2)N(CCc2cccs2)C1=O (stereo not given)"
  STUDY_TARGET: "HCT-15 colon"
  ANSWER_LABEL: "False"
- MOLECULE: "O=C1C(Nc2cccc(O)c2)=C(Sc2ccccc2)C(=O)N1Cc1ccccc1"
  STUDY_TARGET: "HCT-15 colon"
  ANSWER_LABEL: "False"
- MOLECULE: "O=C1/C(=C/c2ccccc2[N+](=O)[O-])COc2ccc(O)cc21"
  STUDY_TARGET: "HCT-15 colon"
  ANSWER_LABEL: "True"
- MOLECULE: "COc1ccc(S(=O)(=O)N2CCNCC2)cc1OC"
  STUDY_TARGET: "HCT-15 colon"
  ANSWER_LABEL: "False"

----------
# System: OVCAR-4 ovarian
# TEST: NCI tumour cell line growth inhibition, 48 h; in the data active = GI50 below about 0.43 µM; inactive = the rest
Labels: 1 = active, 0 = inactive

- COMPOUND: "COCCOCCOCCOCCOC(=O)OC[n+]1ccc(NC(=NCCCCCCOc2ccc(Cl)cc2)NC#N)cc1"
  ANSWER_LABEL: 0
- COMPOUND: "C=CC(=O)N[C@@H](/C=C/C(=O)OCC)Cc1ccc(-c2cc(Cl)cc(Cl)c2)cc1"
  ANSWER_LABEL: 0
- COMPOUND: "COc1ccc(-c2c3c(N)c4c(nc3nc3c2c(C)nn3-c2ccccc2)CCCC4)cc1"
  ANSWER_LABEL: 0
- COMPOUND: "COc1cc(/C=C/C(=O)O[C@H]2[C@H](O[C@@H]3O[C@@H](C)[C@H](O)[C@@H](O)[C@H]3O)[C@@H](O)[C@H](OCCc3ccc(O)c(O)c3)O[C@@H]2COC2OCC(O)(CO)C2O)ccc1O (stereo partly specified)"
  ANSWER_LABEL: 0
- COMPOUND: "c1ccc2c(CNCCN3CCNCC3)c3ccccc3c(CNCCN3CCNCC3)c2c1"
  ANSWER_LABEL: 0
- COMPOUND: "CC(C)N(Cc1ccc(F)cc1)c1ccc(CO)c(Cl)c1"
  ANSWER_LABEL: 1
- COMPOUND: "COc1ccc2nc3cc(Cl)ccc3c(N3CCN(c4ccnc(N5CCN(C)CC5)n4)CC3)c2c1"
  ANSWER_LABEL: 0
- COMPOUND: "Nc1nc2ccccc2c2c1S(=O)(=O)c1ccc(Cl)cc1C2=O"
  ANSWER_LABEL: 0
- COMPOUND: "O=c1[nH]c2ccccc2n1C1CCN(CCCC(c2ccc(F)cc2)c2ccc(F)cc2)CC1"
  ANSWER_LABEL: 0
- COMPOUND: "c1ccc(C2CCCCC2)c(OCCCCCN2CCNCC2)c1"
  ANSWER_LABEL: 0
- COMPOUND: "O=S(=O)(O)c1ccc2cc3nn(-c4ccc(/C=C/c5ccc(-n6nc7cc8ccc(S(=O)(=O)O)cc8cc7n6)cc5S(=O)(=O)O)c(S(=O)(=O)O)c4)nc3cc2c1"
  ANSWER_LABEL: 0
- COMPOUND: "CCn1ccnc1C(=O)/C=C/c1ccc(CC(=O)Nc2ccc(F)cc2)cc1"
  ANSWER_LABEL: 0
- COMPOUND: "Clc1nc(Cl)c2ncn(CCOCCn3cnc4c(Cl)nc(Cl)nc43)c2n1"
  ANSWER_LABEL: 1
- COMPOUND: "C=CCN(CC=C)C(=O)[C@H](CC)[C@@H]1CC[C@@H](C)[C@@H]([C@H](C)[C@@H](O)[C@@H](C)C(=O)[C@H](CC)C2O[C@]3(C=C[C@@H](O)[C@]4(CC[C@@](C)([C@H]5CC[C@](O)(CC)[C@H](C)O5)O4)O3)[C@H](C)C[C@@H]2C)O1 (stereo partly specified)"
  ANSWER_LABEL: 0
- COMPOUND: "CC(=O)OCC(CC[CH2][Sn]([Cl])([Cl])[c]1ccccc1)OC(C)=O (stereo unspecified)"
  ANSWER_LABEL: 0
- COMPOUND: "COc1ccc(S(=O)(=O)N2CCNCC2)cc1OC"
  ANSWER_LABEL: 0
